# MEASURED_ON: Jak2 (UniProt O60674)
# Sequence (O60674 whole entry, looked up): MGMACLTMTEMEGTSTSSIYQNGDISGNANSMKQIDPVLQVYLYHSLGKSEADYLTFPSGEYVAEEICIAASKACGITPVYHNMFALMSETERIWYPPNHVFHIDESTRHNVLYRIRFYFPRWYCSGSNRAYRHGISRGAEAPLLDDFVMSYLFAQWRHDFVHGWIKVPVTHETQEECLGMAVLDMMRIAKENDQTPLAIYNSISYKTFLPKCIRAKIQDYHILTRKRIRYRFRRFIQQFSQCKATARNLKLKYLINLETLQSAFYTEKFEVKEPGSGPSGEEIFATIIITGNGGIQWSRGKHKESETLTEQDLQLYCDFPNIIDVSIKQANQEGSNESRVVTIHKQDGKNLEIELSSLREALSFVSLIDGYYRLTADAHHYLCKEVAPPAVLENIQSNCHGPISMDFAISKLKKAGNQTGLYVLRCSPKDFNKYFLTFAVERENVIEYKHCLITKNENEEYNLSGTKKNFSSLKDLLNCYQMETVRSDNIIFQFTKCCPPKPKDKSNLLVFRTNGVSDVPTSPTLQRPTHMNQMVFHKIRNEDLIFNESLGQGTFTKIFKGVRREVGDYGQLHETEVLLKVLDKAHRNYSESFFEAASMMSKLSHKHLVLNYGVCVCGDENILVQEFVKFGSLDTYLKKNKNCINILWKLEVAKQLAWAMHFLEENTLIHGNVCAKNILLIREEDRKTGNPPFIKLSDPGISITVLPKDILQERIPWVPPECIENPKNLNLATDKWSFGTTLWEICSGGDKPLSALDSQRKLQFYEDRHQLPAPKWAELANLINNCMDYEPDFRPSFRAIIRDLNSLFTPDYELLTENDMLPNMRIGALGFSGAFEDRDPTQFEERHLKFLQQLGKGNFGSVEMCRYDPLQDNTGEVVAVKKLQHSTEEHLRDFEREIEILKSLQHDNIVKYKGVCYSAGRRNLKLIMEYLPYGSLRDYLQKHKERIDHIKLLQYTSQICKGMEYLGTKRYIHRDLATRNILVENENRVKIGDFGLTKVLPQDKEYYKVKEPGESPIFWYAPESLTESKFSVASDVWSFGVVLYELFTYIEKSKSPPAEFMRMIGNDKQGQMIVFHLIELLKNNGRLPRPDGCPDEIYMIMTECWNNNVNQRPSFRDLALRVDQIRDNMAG
# ASSAY_INFO: phosphorylation enrichment, bacterial display (enrichment ratio); higher = better substrate or ligand; peptides without Tyr show the background;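 further: 11-residue human phosphosite peptides and single-mutation variants displayed on the E. coli surface, counted by deep sequencing, each peptide's frequency after selection divided by its frequency in the unselected input library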;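 further: frequency after pTyr selection over input frequency; kinase dosed for 20-30% of maximal phosphorylation in three min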
Please mark 1 (yes) if the recorded phosphorylation enrichment is equal to or greater than 0.8, and 0 (no) if it falls below.

> print(dat)
                          sequence.data  class.label
 1           EIELAYRRRPP [GRIN2B_Y1109]       0 (no)
 2        SLIDMYSEVPD [OPA1_Y268_L272P]      1 (yes)
 3        PVKSEYSSIKL [NPC2_Y119_P120S]       0 (no)
 4             VQDPAYLRDID [OPRK1_Y369]      1 (yes)
 5              HSVLQYVGGVM [FGGY_Y136]      1 (yes)
 6     RNIQQHNSFVS [PRKAR1A_Y373_Y373H]       0 (no)
 7  NKFTTYLPWLP [C9orf24_Y126_R129W_YF]      1 (yes)
 8              KLPDAYERLIL [G6PD_Y437]       0 (no)
 9          TSGVVYKARNK [CDK2_Y19_Y15S]       0 (no)
10              VNKLVYENING [FRS2_Y306]       0 (no)
11           KDYETYQPFQN [CTNND2_Y1157]      1 (yes)
12        WQQQSYLDSEI [CTNNB1_Y30_G34E]      1 (yes)
13     CFSSEYHFVGG [CTSC_Y345_Y340C_YF]      1 (yes)
14            KSMSVYCTPNK [ATP2A2_Y497]       0 (no)
15       LTVVIYVLVGR [EPHA3_Y561_I564V]       0 (no)
16           KKKKQYKDKFL [CASK_Y708_YF]       0 (no)
17               KELANYYKLHH [AK7_Y390]      1 (yes)
18        FYRNVYHLASV [RBL1_Y796_K794N]       0 (no)
19        GISDEYHVIQH [GCDH_Y398_R402Q]      1 (yes)
20       EDSEYYRAFEE [CASQ2_Y179_K180R]      1 (yes)
21          LQTFRYHGHSM [PDHA1_Y289_YF]      1 (yes)
22        YKEQGYHRLPS [RIN1_Y681_P686S]       0 (no)
23              STTSDYQWDVS [MTDH_Y364]      1 (yes)
24      LDTFIYDAAVL [GRIN2A_Y730_A727T]      1 (yes)
25        EEGENYQKGEQ [CHGB_Y173_R178Q]      1 (yes)
26             LLANAYIYVVQ [L1CAM_Y418]      1 (yes)
27        KLPDAYEPLIL [G6PD_Y437_R439P]      1 (yes)
28          AIGYEYSEINI [SIGLEC12_Y588]      1 (yes)
29          NIWDSYTTNKV [GNB1_Y85_I80N]       0 (no)
30               TFRPPYYHRNC [HGD_Y333]       0 (no)
31     SWKRRYFLLWA [APBB1IP_Y331_R335W]       0 (no)
